Give FACS-Seq fitted mean (log10) for every item shown.
B1: library; a variant is named by its letters at N, in order (parent)
chain: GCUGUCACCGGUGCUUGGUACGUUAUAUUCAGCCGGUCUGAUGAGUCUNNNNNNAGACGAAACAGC

- Variants of: B1
- measurement.notes: FACS-Seq fitted mean relative fluorescence mCherry/BFP with ligand (log10 relative fluorescence); HEK293T overexpressing SLC46A1; ligand concentration (+) FACS-Seq: 6 mM; higher = higher reporter protein expression
- particulars: with (6R,S)-folinic acid; ligand present: yes

Reference set, count: 4
mutation.list	obs.value
GACGGA	0.557
GUGGCA	0.458
UGAGGA	0.598
CGUGAA	0.192

Kindly give each listed record's FACS-Seq fitted mean (log10).
1. GCUACA
2. UAUAAG
3. AAUACU
4. GCAACU
5. AAGCAA

**A:**
-0.102
0.476
0.384
0.667
0.361

Please give FACS-Seq fitted mean (log10) for each item listed below.
1. CUAUAG
2. UUGUAU
3. UGUACU
4. UACAGG
5. UCUUAG

**A:**
0.35
-0.176
0.253
0.489
-0.141

Please give FACS-Seq fitted mean (log10), item by item, for the list that follows.
1. AGUCGU
2. AUAGCC
3. AUGGGA
4. GCCAGG
5. CCCCUG

**A:**
[-0.0314, 0.591, 0.269, 0.666, 0.0558]

Each of the following entries comes with a recorded value; kindly state FACS-Seq fitted mean (log10) for each.
1. UAUGCG
2. GUCCAG
3. CAAGGA
4. AGUACG
5. UUGAUG
6. UAGAGG

**A:**
0.61
0.103
0.722
-0.00576
0.436
0.481
